Values from patent US20190127480A1

Molecular target: human CD3 expressed on cells (Jurkat cells; human T-cells of PBMC) (human, UniProt P09693 23-182; P20963 22-164)
Sequence (chain, as listed by the source, chain 1 of 4): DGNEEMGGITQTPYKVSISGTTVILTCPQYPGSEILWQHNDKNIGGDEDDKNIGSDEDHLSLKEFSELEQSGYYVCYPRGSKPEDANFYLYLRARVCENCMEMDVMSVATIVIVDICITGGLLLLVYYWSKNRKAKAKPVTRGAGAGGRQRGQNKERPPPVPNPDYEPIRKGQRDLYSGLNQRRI
Sequence (chain, as listed by the source, chain 2 of 4): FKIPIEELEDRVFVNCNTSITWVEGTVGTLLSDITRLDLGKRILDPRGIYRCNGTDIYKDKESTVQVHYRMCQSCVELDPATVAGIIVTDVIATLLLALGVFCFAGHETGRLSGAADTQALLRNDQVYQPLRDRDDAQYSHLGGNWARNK
Sequence (P09693 23-182, chain 3 of 4): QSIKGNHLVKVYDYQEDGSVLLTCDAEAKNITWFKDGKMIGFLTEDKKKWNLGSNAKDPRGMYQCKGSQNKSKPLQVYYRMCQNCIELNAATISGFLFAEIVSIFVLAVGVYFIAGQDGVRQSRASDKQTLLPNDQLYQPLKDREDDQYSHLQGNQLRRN
Sequence (P20963 22-164, chain 4 of 4): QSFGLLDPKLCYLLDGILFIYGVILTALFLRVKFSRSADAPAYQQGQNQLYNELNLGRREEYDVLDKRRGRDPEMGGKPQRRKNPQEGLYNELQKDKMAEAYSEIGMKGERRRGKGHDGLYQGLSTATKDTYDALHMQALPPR
Test: cell-based or functional assay
Experimental endpoint: U937 Cytotoxicity Human T-cells
Please don't drop the unit; write it after the number.

Form field: reported U937 Cytotoxicity Human T-cells of H2M2711N (antibody, V domains shown) VH: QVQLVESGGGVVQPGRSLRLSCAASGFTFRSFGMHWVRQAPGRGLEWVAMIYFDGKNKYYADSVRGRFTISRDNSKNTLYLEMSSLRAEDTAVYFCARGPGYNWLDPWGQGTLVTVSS VL: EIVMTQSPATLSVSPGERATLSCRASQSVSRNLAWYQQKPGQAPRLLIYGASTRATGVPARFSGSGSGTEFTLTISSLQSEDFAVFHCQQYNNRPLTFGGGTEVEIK
3.66 pM
